# credit: patent US8178568B2

- target.system: human CB2R (Homo sapiens, UniProt P34972)
- Construct: host or cells: CHO cells
- Sequence (P34972 whole entry): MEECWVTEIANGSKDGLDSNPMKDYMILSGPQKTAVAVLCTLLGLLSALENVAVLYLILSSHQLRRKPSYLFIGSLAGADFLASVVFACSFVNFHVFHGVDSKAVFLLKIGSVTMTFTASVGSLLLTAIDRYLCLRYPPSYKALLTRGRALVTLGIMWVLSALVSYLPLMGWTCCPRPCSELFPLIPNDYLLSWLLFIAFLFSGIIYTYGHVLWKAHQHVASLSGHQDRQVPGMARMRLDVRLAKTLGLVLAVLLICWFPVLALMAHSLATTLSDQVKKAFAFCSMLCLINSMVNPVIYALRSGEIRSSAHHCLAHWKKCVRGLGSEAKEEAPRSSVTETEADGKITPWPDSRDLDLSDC
- experiment.notes: CB2R mediated modulation of cAMP synthesis
- Assay type: cell-based
EC50 strictly under 0.03 µM means yes (1); at 0.03 µM or over means no (0).

// known answers, use as guide
- compound: "CC(C)(C)c1cc(NC(=O)C(C)(CCO)S(=O)(=O)c2ccc(Cl)cc2)on1 (stereo not drawn)"
  cat: "yes (1)"
- compound: "CC(C)(C)c1cc(N2CCC(C)(S(=O)(=O)c3ccc(Cl)cc3)C2=O)on1 (stereo not drawn)"
  cat: "yes (1)"

q: Check if EC50 falls below 0.03 µM for CC(C)(C)c1cc(N2CC[C@@](C)(S(=O)(=O)c3ccc(Cl)cc3)C2=O)on1 .
a: no (0)

q: Quick check: does CC(C)(C)c1cc(NC(=O)C(C)(CCO)S(=O)(=O)C2CCOCC2)on1 (stereo not drawn) have EC50 under 0.03 µM?
a: yes (1)

q: Determine whether this compound shows EC50 lower than 0.03 µM (ties excluded): CC(C)(C)c1cc(N2CCC(C)(S(=O)(=O)c3ccc(Cl)cc3)C2=O)no1 (stereo not drawn)
a: yes (1)

q: API: query returns whether the compound falls strictly under 0.03 µM in EC50. Query: CC(C)(C)c1cc(N2CC[C@](C)(S(=O)(=O)c3ccc(Cl)cc3)C2=O)on1
a: yes (1)
